Target: 5-hydroxytryptamine receptor 3A (Homo sapiens)
Sequence (P46098 whole entry): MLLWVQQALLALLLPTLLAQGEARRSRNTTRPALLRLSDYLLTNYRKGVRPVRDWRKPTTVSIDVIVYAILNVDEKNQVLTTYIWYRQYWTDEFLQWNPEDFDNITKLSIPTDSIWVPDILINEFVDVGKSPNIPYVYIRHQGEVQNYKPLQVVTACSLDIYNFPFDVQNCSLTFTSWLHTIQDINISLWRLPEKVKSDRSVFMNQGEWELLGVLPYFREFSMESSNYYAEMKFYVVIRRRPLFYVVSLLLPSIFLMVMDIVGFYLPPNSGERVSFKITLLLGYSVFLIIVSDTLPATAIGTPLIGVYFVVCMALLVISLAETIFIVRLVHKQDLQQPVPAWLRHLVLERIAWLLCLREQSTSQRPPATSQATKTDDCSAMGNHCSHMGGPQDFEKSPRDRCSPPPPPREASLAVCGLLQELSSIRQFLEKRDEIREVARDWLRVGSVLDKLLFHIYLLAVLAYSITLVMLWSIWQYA
Some compounds, each annotated with its measured pKi.
# reply with the number alone; pKi is -log10 of concentration in mol/L

[ask] Entry CCNc1nc2c(C(=O)N[C@@H]3CN4CCC3CC4)cccc2o1 : reported pKi = ?
[reply] 7.44

[ask] Input CN1[C@@H]2CCC[C@H]1C[C@H](NC(=O)c1cccc3oc(N4CCOC[C@@H]4C(C)(C)C)nc13)C2
[reply] 8.70

[ask] Input CN1[C@@H]2CCC[C@H]1C[C@H](NC(=O)c1cccc3oc(N4CCOCC4)nc13)C2
[reply] 7.40

---
[ask] Entry CN1[C@@H]2CCC[C@H]1C[C@H](NC(=O)c1cccc3oc(-c4ccccc4)nc13)C2 : reported pKi = ?
[reply] 7.82

[ask] Input COc1ccc(-c2nc3cccc(C(=O)N[C@@H]4C[C@H]5CCC[C@@H](C4)N5C)c3o2)cc1
[reply] 7.23

[ask] Input C[C@H]1COC[C@H](C)N1c1nc2c(C(=O)N[C@@H]3C[C@H]4CCC[C@@H](C3)N4C)cccc2o1
[reply] 9.22

[ask] Input CN1[C@@H]2CCC[C@H]1C[C@H](NC(=O)c1cccc3nc(-c4ccccc4)oc13)C2
[reply] 7.39

[ask] Input O=C(N[C@@H]1CN2CCC1CC2)c1cccc2oc(C3CC3)nc12
[reply] 7.49

[ask] Input Nc1nc2c(C(=O)N[C@@H]3CN4CCC3CC4)cccc2o1
[reply] 7.86

[ask] Input CN1[C@@H]2CCC[C@H]1C[C@H](NC(=O)c1cccc3nc(-c4ccc(F)cc4)oc13)C2
[reply] 7.02

[ask] Input CN1[C@@H]2CCC[C@H]1C[C@H](NC(=O)c1cccc3oc(-c4ccc(Cl)cc4)nc13)C2
[reply] 7.74

====

Some compounds, each annotated with its measured pIC50.
Biological target: UniProtKB Q12809
Sequence (Q12809 whole entry): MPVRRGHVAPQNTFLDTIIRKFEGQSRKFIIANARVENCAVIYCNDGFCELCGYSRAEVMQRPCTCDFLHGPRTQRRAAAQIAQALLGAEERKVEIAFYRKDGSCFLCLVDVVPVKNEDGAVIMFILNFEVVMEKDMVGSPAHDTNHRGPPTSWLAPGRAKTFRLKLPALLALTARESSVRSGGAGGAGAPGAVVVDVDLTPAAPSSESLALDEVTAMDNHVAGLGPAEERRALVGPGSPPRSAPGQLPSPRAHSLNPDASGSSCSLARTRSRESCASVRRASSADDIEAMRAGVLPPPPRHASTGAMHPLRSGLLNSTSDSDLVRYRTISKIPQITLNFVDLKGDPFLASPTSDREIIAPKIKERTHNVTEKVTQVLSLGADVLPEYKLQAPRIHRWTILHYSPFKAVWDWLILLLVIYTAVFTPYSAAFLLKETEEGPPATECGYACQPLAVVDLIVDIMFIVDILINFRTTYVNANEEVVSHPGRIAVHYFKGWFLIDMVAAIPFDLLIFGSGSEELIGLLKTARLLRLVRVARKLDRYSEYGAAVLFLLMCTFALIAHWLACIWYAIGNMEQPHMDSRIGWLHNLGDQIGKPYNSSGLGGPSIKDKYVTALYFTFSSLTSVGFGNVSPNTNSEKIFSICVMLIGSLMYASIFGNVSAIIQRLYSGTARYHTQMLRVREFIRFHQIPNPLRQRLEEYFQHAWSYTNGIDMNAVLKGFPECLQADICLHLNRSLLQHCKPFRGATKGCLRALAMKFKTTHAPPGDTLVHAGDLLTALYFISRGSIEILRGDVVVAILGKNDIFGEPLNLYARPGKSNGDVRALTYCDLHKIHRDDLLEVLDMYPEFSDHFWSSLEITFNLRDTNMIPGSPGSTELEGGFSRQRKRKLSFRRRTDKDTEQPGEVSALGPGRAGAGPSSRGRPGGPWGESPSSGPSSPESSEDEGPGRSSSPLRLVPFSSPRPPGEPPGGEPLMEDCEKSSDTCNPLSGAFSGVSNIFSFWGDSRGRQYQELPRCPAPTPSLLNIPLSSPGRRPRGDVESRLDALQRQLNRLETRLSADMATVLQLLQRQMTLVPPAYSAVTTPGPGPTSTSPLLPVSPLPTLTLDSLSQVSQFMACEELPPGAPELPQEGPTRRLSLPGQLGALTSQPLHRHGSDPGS
Assay: Inhibition of human ERG expressed in HEK cells by patch clamp technique
# reply with the number alone; pIC50 is -log10 of concentration in mol/L

Guide cases for pIC50, answers given:
[ask] What value of pIC50 on UniProtKB Q12809 does CN1[C@@H]2CCC[C@H]1C[C@H](NC(=O)c1cccc3oc(N4CCOCC4)nc13)C2 have?
[reply] 5.85

[ask] Input Nc1nc2c(C(=O)N[C@@H]3CN4CCC3CC4)cc(Cl)cc2o1
[reply] 5.32

[ask] Input O=C(N[C@@H]1CN2CCC1CC2)c1cccc2oc(C3CC3)nc12
[reply] 6.15

---
[ask] What value of pIC50 on UniProtKB Q12809 does C[C@H]1CNC[C@H](C)N1c1nc2c(C(=O)N[C@@H]3C[C@H]4CCC[C@@H](C3)N4C)cccc2o1 have?
[reply] 5.19

[ask] Input COc1ccccc1-c1nc2c(C(=O)N[C@@H]3C[C@H]4CCC[C@@H](C3)N4C)cccc2o1
[reply] 6.40

[ask] Input O=C(N[C@@H]1CN2CCC1CC2)c1cccc2oc(N3CCOCC3)nc12
[reply] 5.49

[ask] Input COc1ccccc1-c1nc2c(C(=O)N[C@@H]3CN4CCC3CC4)cccc2o1
[reply] 6.70

====

Tested on: Mus musculus
Assay: Cardioprotective effect in po dosed mouse assessed as inhibition of 5-HT-induced bradycardia administered 1 hr prior to 5-HT challenge
Format: functional
EXPERIMENTAL ENDPOINT: ED50 (mg/kg)
Field: numeric (mg/kg). Do not append units.

[ask] Entry Cc1nccn1CC1CCc2c(c3ccccc3n2C)C1=O (stereo not given) [ONDANSETRON] : reported ED50 = ?
[reply] 0.54

[ask] Input Cc1[nH]cnc1CN1CCc2c(c3ccccc3n2C)C1=O [ALOSETRON]
[reply] 0.02

[ask] Input Nc1nc2c(C(=O)N[C@@H]3CN4CCC3CC4)cc(Cl)cc2o1
[reply] 0.4

[ask] Input Nc1nc2c(C(=O)N[C@@H]3CN4CCC3CC4)cccc2o1
[reply] 1.08

Continue with the molecule presented below.
[ask] Entry C[C@H]1CNC[C@H](C)N1c1nc2c(C(=O)N[C@@H]3C[C@H]4CCC[C@@H](C3)N4C)cccc2o1 : reported ED50 = ?
[reply] 0.85

====

Target: 5-hydroxytryptamine receptor 3A (Homo sapiens, UniProt P46098)
EXPERIMENTAL ENDPOINT: Ki (µM)
Field: numeric (µM). Do not append units.

Guide cases for Ki, answers given:
[ask] Entry Nc1nc2c(C(=O)N[C@@H]3CN4CCC3CC4)cc(Cl)cc2o1 : reported Ki = ?
[reply] 0.0047

[ask] Input C[C@@H]1CN(c2nc3c(C(=O)N[C@@H]4C[C@H]5CCC[C@@H](C4)N5C)cccc3o2)C[C@H](C)O1
[reply] 0.0353

[ask] Input CC[C@H]1COCCN1c1nc2c(C(=O)N[C@@H]3C[C@H]4CCC[C@@H](C3)N4C)cccc2o1
[reply] 0.0046

Continue with the compound presented below.
[ask] Entry CN1[C@@H]2CCC[C@H]1C[C@H](NC(=O)c1cccc3nc(-c4ccc(Cl)cc4)oc13)C2 : reported Ki = ?
[reply] 0.0738

====

Assay: Intrinsic clearance in human liver microsomes
Assay type: ADME, Microsome
// label = MET if microsomal CLint is not less than 4 µL/min/mg, otherwise NOT MET

For orientation, consider the following solved cases.
[ask] Could you tell me if the measured microsomal CLint of CN1[C@@H]2CCC[C@H]1C[C@H](NC(=O)c1cccc3oc(N4CCOCC4)nc13)C2 reaches 4 µL/min/mg or more?
[reply] NOT MET

[ask] Input Nc1nc2c(C(=O)N[C@@H]3CN4CCC3CC4)cc(Cl)cc2o1
[reply] NOT MET

[ask] Input Cc1nccn1CC1CCc2c(c3ccccc3n2C)C1=O (stereo unspecified)
[reply] MET

[ask] Input CN1[C@@H]2CCC[C@H]1C[C@H](NC(=O)c1cccc3oc(C4CC4)nc13)C2
[reply] MET

[ask] Input COc1ccccc1-c1nc2c(C(=O)N[C@@H]3CN4CCC3CC4)cccc2o1
[reply] MET

---
[ask] Could you tell me if the measured microsomal CLint of O=C(N[C@@H]1CN2CCC1CC2)c1cccc2oc(C3CC3)nc12 reaches 4 µL/min/mg or more?
[reply] MET

[ask] Input COc1ccccc1-c1nc2c(C(=O)N[C@@H]3C[C@H]4CCC[C@@H](C3)N4C)cccc2o1
[reply] NOT MET

[ask] Input Cc1[nH]cnc1CN1CCc2c(c3ccccc3n2C)C1=O
[reply] NOT MET

[ask] Input O=C(N[C@@H]1CN2CCC1CC2)c1cccc2oc(N3CCOCC3)nc12
[reply] NOT MET

[ask] Input C[C@H]1CNC[C@H](C)N1c1nc2c(C(=O)N[C@@H]3C[C@H]4CCC[C@@H](C3)N4C)cccc2o1
[reply] NOT MET

[ask] Input Nc1nc2c(C(=O)N[C@@H]3CN4CCC3CC4)cccc2o1
[reply] NOT MET

====

Some compounds, each annotated with its measured pKi.
Target: 5-hydroxytryptamine receptor 3A (Homo sapiens)
Sequence (P46098 whole entry): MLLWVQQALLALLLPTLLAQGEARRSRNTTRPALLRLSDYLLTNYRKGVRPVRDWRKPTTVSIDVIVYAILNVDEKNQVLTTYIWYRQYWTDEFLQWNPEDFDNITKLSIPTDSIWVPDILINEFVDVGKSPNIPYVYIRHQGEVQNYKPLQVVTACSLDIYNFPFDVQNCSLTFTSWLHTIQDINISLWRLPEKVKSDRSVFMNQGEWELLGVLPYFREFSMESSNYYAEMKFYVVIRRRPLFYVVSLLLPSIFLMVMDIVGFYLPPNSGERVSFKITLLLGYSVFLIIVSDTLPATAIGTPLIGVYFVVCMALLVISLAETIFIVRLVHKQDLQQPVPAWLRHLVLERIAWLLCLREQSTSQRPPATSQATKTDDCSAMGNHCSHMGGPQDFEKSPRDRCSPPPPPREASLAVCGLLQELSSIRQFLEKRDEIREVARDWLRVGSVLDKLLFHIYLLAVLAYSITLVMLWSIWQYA
# reply with the number alone; pKi is -log10 of concentration in mol/L

Guide cases for pKi, answers given:
[ask] Entry C[C@@H]1CNC[C@@H](C)N1c1nc2c(C(=O)N[C@@H]3C[C@H]4CCC[C@@H](C3)N4C)cccc2o1 : reported pKi = ?
[reply] 7.23

[ask] Input CN1[C@@H]2CCC[C@H]1C[C@H](NC(=O)c1cccc3oc(-c4ccc(F)cc4)nc13)C2
[reply] 7.79

[ask] Input C[C@@H]1CNC[C@H](C)N1c1nc2c(C(=O)N[C@@H]3C[C@H]4CCC[C@@H](C3)N4C)cccc2o1
[reply] 7.43

Continue with the compound presented below.
[ask] Entry C[C@H]1CNC[C@H](C)N1c1nc2c(C(=O)N[C@@H]3C[C@H]4CCC[C@@H](C3)N4C)cccc2o1 : reported pKi = ?
[reply] 8.62
